target-entity: Ornithine decarboxylase (Mus musculus) (UniProt P00860)
Sequence (P00860 whole entry): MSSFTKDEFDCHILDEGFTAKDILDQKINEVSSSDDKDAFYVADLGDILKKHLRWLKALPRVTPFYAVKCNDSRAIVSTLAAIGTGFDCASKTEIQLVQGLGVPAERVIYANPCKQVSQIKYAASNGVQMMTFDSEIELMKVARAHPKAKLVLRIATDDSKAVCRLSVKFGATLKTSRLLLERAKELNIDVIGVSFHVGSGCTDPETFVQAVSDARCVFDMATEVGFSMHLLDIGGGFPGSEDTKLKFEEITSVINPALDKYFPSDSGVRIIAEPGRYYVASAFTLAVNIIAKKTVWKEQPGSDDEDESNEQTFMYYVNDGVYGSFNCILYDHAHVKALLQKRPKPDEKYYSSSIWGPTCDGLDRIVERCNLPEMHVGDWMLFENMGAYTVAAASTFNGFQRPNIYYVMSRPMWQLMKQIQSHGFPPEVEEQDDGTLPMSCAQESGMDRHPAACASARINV
run-description: Inhibition of 12-O-tetradecanoylphorbol 13-acetate-induced ornithine decarboxylase activity in mouse ME308 cells
Type: cell-based
Please use label 1 for Activity under 0.6 µM and label 0 for everything else, ties included.

Field: example entries. Status: answers known.
| compound | answer-label |
| --- | --- |
| C=C[C@@]1(C)CC[C@H]2C(=CC[C@@H]3[C@]2(C)CCC[C@@]3(C)C(=O)O)C1 [ISOPIMARIC ACID] | label 0 |
| COc1cc([C@H]2c3cc4c(cc3C[C@H]3COC(=O)[C@H]32)OCO4)cc(OC)c1OC [ISOPICRODEOXYPODOPHYLLOTOXIN] | label 1 |
| COc1cc(C[C@H]2C(=O)OC[C@@H]2Cc2ccc3c(c2)OCO3)cc(OC)c1OC | label 0 |
| C=C[C@@]1(C)CCC2=C(C1)C(=O)C[C@H]1[C@](C)(C(=O)O)CCC[C@]21C | label 0 |

In: Does the reported Activity of COc1cc([C@@H]2c3cc4c(cc3C[C@H]3COC(=O)[C@@H]32)OCO4)cc(OC)c1OC [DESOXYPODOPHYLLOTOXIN] stay below 0.6 µM?
Out: label 1

In: Field: below-cutoff. Rule: recorded Activity strictly less than 0.6 µM. Subject: C=C[C@]1(C)C=C2C(=O)C[C@@H]3[C@](C)(CCC[C@@]3(C)C(=O)O)[C@H]2CC1
Out: label 1
